Below, each entry is listed alongside its reported Absorption/remaining residue with.
# measurement-description: Sensory properties of oil component blended with alkanediol, assessed by untrained panelists on the backside of the hand
# Assay type: in vivo
# condition-set: in Avocado Oil; scale 1 (low) to 5 (high absorption)
Answer with a number only.

CCCCCC(O)C(C)O (stereo not shown) | 2.4
CCCCC(O)C(C)O (stereo not shown) | 2.4
CCCCCCC(O)CO (stereo not shown) | 2.6

// moving on: another record for Absorption/remaining residue with
Entry under test: CCCCCC(O)CO (stereo not shown) . Its Absorption/remaining residue with was 2.6

---

# measurement-description: Solubility of alkanediols in water (visual observation)
# condition-set: assessed at ambient temperature after 24 h storage at 5° C.
Please note: yes (1) applies when Maximum solubility in water (% by weight) is 0.5 % by weight or greater, and no (0) applies otherwise.

Qu. Has CCCCCCC(O)C(C)O (stereo not drawn) a recorded Maximum solubility in water (% by weight) greater than or equal to 0.5 % by weight?
Ans. no (0)

Qu. Has CCCCC(O)C(C)O (stereo not drawn) a recorded Maximum solubility in water (% by weight) greater than or equal to 0.5 % by weight?
Ans. yes (1)

Qu. Has CCCCCCCC(O)CO (stereo not drawn) a recorded Maximum solubility in water (% by weight) greater than or equal to 0.5 % by weight?
Ans. no (0)

Qu. Has CCCCCC(O)CO (stereo not drawn) a recorded Maximum solubility in water (% by weight) greater than or equal to 0.5 % by weight?
Ans. yes (1)

Qu. Has CCCCCC(O)C(C)O (stereo not drawn) a recorded Maximum solubility in water (% by weight) greater than or equal to 0.5 % by weight?
Ans. yes (1)

---

# measurement-description: Sensory properties of oil component blended with alkanediol, assessed by untrained panelists on the backside of the hand
# Format: in vivo
# condition-set: in Olive Oil; scale 1 (low) to 5 (high absorption)
recorded-metric: Absorption/remaining residue with
Answer with a number only.

Please review the following examples before continuing.
CCCCCC(O)C(C)O (stereo not shown) [2,3-octanediol] | 2.6
CCCCC(O)C(C)O (stereo not shown) [2,3-heptanediol] | 2
CCCCCCC(O)CO (stereo not shown) [1,2-octanediol] | 2.6

// moving on: another record for Absorption/remaining residue with
Entry under test: CCCCCC(O)CO (stereo not shown) [1,2-heptanediol] . Its Absorption/remaining residue with was 2.4
